Reported CL/F values for the following compounds.
PROTOCOL_DETAILS: Pharmacokinetics of six compounds in rat plasma after oral administration of PYQ (HPLC-MS/MS)
Format: in vivo, Sprague–Dawley rats
SETUP_CONDITIONS: female, Sprague-Dawley, po, PYQ orally 8 mL/kg, mean ± SD, n = 6, read-out: CLz/F (converted)
Dear colleague, please return just the value in mL/min/kg, with no unit written.

Please review the entries below; each comes with its answer.
COMPOUND	REPORTED_METRIC	RESULT
C[C@@H]1O[C@@H](O[C@H]2C(=O)c3c(O)cc(O)cc3O[C@@H]2c2ccc(O)c(O)c2)[C@H](O)[C@H](O)[C@H]1O [AST, astilbin]	CL/F	159
O=C(/C=C/c1ccc(O)c(O)c1)O[C@@H]1C[C@](O)(C(=O)O)C[C@@H](O)[C@H]1O [CH, chlorogenic acid]	CL/F	356
O=Cc1ccc(O)c(O)c1 [PRO, protocatechualdehyde]	CL/F	310

IN: Find the recorded CL/F belonging to COc1cc(/C=C/C(=O)O)ccc1O [FE, ferulic acid] and report it.
OUT: 230

IN: Param item = C[C@@]12C[C@@]3(O)O[C@@H](O1)[C@]1(COC(=O)c4ccccc4)[C@H]3C[C@@]12O[C@@H]1O[C@H](CO)[C@@H](O)[C@H](O)[C@H]1O [PE, paeoniflorin] ; retrieve measured CL/F.
OUT: 153
